assayed_system: HLA-A*24:02
protocol_text: IEDB peptide-MHC binding, purified MHC/direct/fluorescence; filed as Kd, often an IC50 or EC50 that approximates it; bounds were set here for any values at or beyond the usual limits of such assays
condition_context: source organism: Campylobacter jejuni
recorded_endpoint: pKd
// pKd is dimensionless: -log10 of concentration (M)

Entry WFGHLASDW , pKd reported as 5.80

---

assayed_system: HLA-A*29:02
protocol_text: IEDB peptide-MHC binding, purified MHC/competitive/fluorescence; filed as Kd, often an IC50 or EC50 that approximates it; bounds were set here for any values at or beyond the usual limits of such assays
condition_context: source organism: Campylobacter jejuni subsp. jejuni NCTC 11168 = ATCC 700819
recorded_endpoint: Kd (nM)
Reply with just the number (in nM).

Entry AVGFFPTGV , Kd reported as 351

---

assayed_system: HLA-B*18:01
protocol_text: IEDB peptide-MHC binding, purified MHC/competitive/radioactivity; filed as Kd, often an IC50 or EC50 that approximates it; bounds were set here for any values at or beyond the usual limits of such assays
condition_context: source organism: Lymphocytic choriomeningitis virus (strain Armstrong)
recorded_endpoint: pKd
// pKd is dimensionless: -log10 of concentration (M)

Entry SENDWFSCM , pKd reported as 6.73

---

assayed_system: HLA-B*07:02
protocol_text: IEDB peptide-MHC binding, purified MHC/direct/fluorescence; filed as Kd, often an IC50 or EC50 that approximates it; bounds were set here for any values at or beyond the usual limits of such assays
condition_context: source organism: Escherichia coli O157:H7
Entries annotated with measured pKd
// pKd is dimensionless: -log10 of concentration (M)

polymer_sequence | assayed_system | pKd
KPKLKVATL | HLA-B*07:02 | 7.17

// switching to the query sequence
Entry VMAASGAPF , pKd reported as 6.83

---

assayed_system: HLA-B*46:01
protocol_text: IEDB peptide-MHC binding, purified MHC/direct/fluorescence; filed as Kd, often an IC50 or EC50 that approximates it; bounds were set here for any values at or beyond the usual limits of such assays
condition_context: source organism: Yellow fever virus
pKd: −log10 of the molar value.
recorded_endpoint: pKd

Entry SQEAEFTGY , pKd reported as ≤ 4.70

---

assayed_system: HLA-B*27:05
protocol_text: IEDB peptide-MHC binding, purified MHC/direct/fluorescence; filed as Kd, often an IC50 or EC50 that approximates it; bounds were set here for any values at or beyond the usual limits of such assays
condition_context: source organism: Klebsiella pneumoniae
pKd: −log10 of the molar value.
recorded_endpoint: pKd

Entry LLQEKYGLI , pKd reported as ≤ 4.70

---

assayed_system: HLA-A*02:01
protocol_text: IEDB peptide-MHC binding, purified MHC/competitive/fluorescence; filed as Kd, often an IC50 or EC50 that approximates it; bounds were set here for any values at or beyond the usual limits of such assays
condition_context: source organism: Yersinia pseudotuberculosis IP 31758
recorded_endpoint: Kd

Entry FQWWRSHPL , Kd reported as ≤ 0.1 nM

---

assayed_system: HLA-A*23:01
protocol_text: IEDB peptide-MHC binding, purified MHC/direct/fluorescence; filed as Kd, often an IC50 or EC50 that approximates it; bounds were set here for any values at or beyond the usual limits of such assays
condition_context: source organism: Influenza A virus (A/ferret/Maryland/P10-UMD/2008(H9N2))
recorded_endpoint: Kd

Recorded Kd for NMDKAVKLY on HLA-A*23:01 was ≥ 20 µM

---

assayed_system: HLA-A*23:01
protocol_text: IEDB peptide-MHC binding, purified MHC/direct/fluorescence; filed as Kd, often an IC50 or EC50 that approximates it; bounds were set here for any values at or beyond the usual limits of such assays
condition_context: source organism: Burkholderia mallei ATCC 23344
pKd: −log10 of the molar value.
recorded_endpoint: pKd

Entry NVMDPMHGA , pKd reported as ≤ 4.70

---

assayed_system: HLA-B*53:01
protocol_text: IEDB peptide-MHC binding, purified MHC/competitive/radioactivity; filed as Kd, often an IC50 or EC50 that approximates it; bounds were set here for any values at or beyond the usual limits of such assays
condition_context: source organism: Dengue virus 1 Brazil/97-11/1997
recorded_endpoint: Kd (nM)
Reply with just the number (in nM).

polymer_sequence | units_symbol | Kd
EPIPMATYGW | nM | 13.2

Entry MPSVVETLEQ , Kd reported as 1200

---

assayed_system: HLA-B*27:05
protocol_text: IEDB peptide-MHC binding, purified MHC/direct/fluorescence; filed as Kd, often an IC50 or EC50 that approximates it; bounds were set here for any values at or beyond the usual limits of such assays
condition_context: source organism: Homo sapiens
recorded_endpoint: Kd
Enter the number, and then the unit.

Recorded Kd for ERLQICQRK on HLA-B*27:05 was 1.69 µM

---

assayed_system: HLA-A*24:03
protocol_text: IEDB peptide-MHC binding, purified MHC/competitive/fluorescence; filed as Kd, often an IC50 or EC50 that approximates it; bounds were set here for any values at or beyond the usual limits of such assays
condition_context: source organism: Brucella suis ATCC 23445
recorded_endpoint: Kd

Recorded Kd for ITAVNRYFK on HLA-A*24:03 was ≥ 20 µM

---

assayed_system: HLA-A*31:01
protocol_text: IEDB peptide-MHC binding, purified MHC/competitive/fluorescence; filed as Kd, often an IC50 or EC50 that approximates it; bounds were set here for any values at or beyond the usual limits of such assays
condition_context: source organism: dengue virus type 1
recorded_endpoint: Kd (nM)
Reply with just the number (in nM).

Entry AVSMANIFR , Kd reported as 1.37

---

assayed_system: HLA-B*07:02
protocol_text: IEDB peptide-MHC binding, purified MHC/competitive/radioactivity; filed as Kd, often an IC50 or EC50 that approximates it; bounds were set here for any values at or beyond the usual limits of such assays
condition_context: source organism: Dengue virus 4 Dominica/814669/1981
recorded_endpoint: Kd (nM)
Reply with just the number (in nM).

Entry TPRGAVMDII , Kd reported as 8.05

---

assayed_system: HLA-A*02:03
protocol_text: IEDB peptide-MHC binding, purified MHC/competitive/fluorescence; filed as Kd, often an IC50 or EC50 that approximates it; bounds were set here for any values at or beyond the usual limits of such assays
condition_context: source organism: Brucella suis ATCC 23445
recorded_endpoint: Kd

Entry ITAVNRYFK , Kd reported as ≥ 20 µM

---

assayed_system: HLA-B*58:01
protocol_text: IEDB peptide-MHC binding, purified MHC/direct/fluorescence; filed as Kd, often an IC50 or EC50 that approximates it; bounds were set here for any values at or beyond the usual limits of such assays
condition_context: source organism: Mycobacterium avium 104
recorded_endpoint: Kd

Entry VRDVVMPAL , Kd reported as ≥ 20 µM

---

assayed_system: HLA-B*58:01
protocol_text: IEDB peptide-MHC binding, purified MHC/competitive/fluorescence; filed as Kd, often an IC50 or EC50 that approximates it; bounds were set here for any values at or beyond the usual limits of such assays
condition_context: source organism: Zaire ebolavirus
recorded_endpoint: Kd (nM)
Reply with just the number (in nM).

Entry VLMKQIPIW , Kd reported as 1.3

---

assayed_system: HLA-A*26:01
protocol_text: IEDB peptide-MHC binding, purified MHC/competitive/fluorescence; filed as Kd, often an IC50 or EC50 that approximates it; bounds were set here for any values at or beyond the usual limits of such assays
condition_context: source organism: Salmonella enterica subsp. enterica serovar Typhi
recorded_endpoint: Kd (nM)
Reply with just the number (in nM).

Entry VTIGNAYIY , Kd reported as 1050

---

assayed_system: HLA-B*51:01
protocol_text: IEDB peptide-MHC binding, purified MHC/competitive/radioactivity; filed as Kd, often an IC50 or EC50 that approximates it; bounds were set here for any values at or beyond the usual limits of such assays
condition_context: source organism: Triticum aestivum
pKd: −log10 of the molar value.
recorded_endpoint: pKd

Entry QPFRPQQPY , pKd reported as ≤ 4.11

---

assayed_system: HLA-B*15:17
protocol_text: IEDB peptide-MHC binding, purified MHC/direct/fluorescence; filed as Kd, often an IC50 or EC50 that approximates it; bounds were set here for any values at or beyond the usual limits of such assays
condition_context: source organism: Influenza A virus (A/SW/MN/12883/00(H1N2))
recorded_endpoint: Kd

Entry FPNEVGARI , Kd reported as ≥ 20 µM

---

assayed_system: HLA-B*07:02
protocol_text: IEDB peptide-MHC binding, purified MHC/direct/fluorescence; filed as Kd, often an IC50 or EC50 that approximates it; bounds were set here for any values at or beyond the usual limits of such assays
condition_context: source organism: Influenza A virus (A/Viet Nam/HN/2004(H5N1))
pKd: −log10 of the molar value.
recorded_endpoint: pKd

Recorded pKd for VHFRNQVKI on HLA-B*07:02 was ≤ 4.70

---

assayed_system: HLA-A*26:01
protocol_text: IEDB peptide-MHC binding, purified MHC/competitive/fluorescence; filed as Kd, often an IC50 or EC50 that approximates it; bounds were set here for any values at or beyond the usual limits of such assays
condition_context: source organism: Homo sapiens
pKd: −log10 of the molar value.
Entries annotated with measured pKd

polymer_sequence | recorded_endpoint | assay_result
GTEYRLTLY | pKd | ≤ 4.70

// switching to the query sequence
Entry RTDNGGWAH , pKd reported as ≤ 4.70

Source listed as the Immune Epitope Database (IEDB).
